# test.method.notes: Plasma pharmacokinetics of neratinib and trametinib co-administered, cycle 1 day 15 (LC/MS, noncompartmental)
# Assay type: in vivo, human
# assay.conditions: human, plasma, oral; read-out: Tmax
property.label: Tmax (h)

1. CC(=O)Nc1cccc(-n2c(=O)n(C3CC3)c(=O)c3c(Nc4ccc(I)cc4F)n(C)c(=O)c(C)c32)c1: 5.6

###

# test.method.notes: Plasma pharmacokinetics of neratinib and trametinib co-administered, cycle 1 day 15 (LC/MS, noncompartmental)
# Assay type: in vivo, human
# assay.conditions: human, plasma, oral
property.label: Half-life (min)

1. CC(=O)Nc1cccc(-n2c(=O)n(C3CC3)c(=O)c3c(Nc4ccc(I)cc4F)n(C)c(=O)c(C)c32)c1 [trametinib]: 3120
2. CCOc1cc2ncc(C#N)c(Nc3ccc(OCc4ccccn4)c(Cl)c3)c2cc1NC(=O)/C=C/CN(C)C [neratinib]: 1080

Values were extracted from paper PMC10326142.
